System: RXF 393 renal
Experiment description: NCI tumour cell line growth inhibition, 48 h
Property: TGI

Below: 5 compounds and their reported TGI.
compound=COc1ccc(C(C#N)=C2C=CC(=NO)C=C2)cc1 property=TGI value_reported="20.5 µM"
compound="CCOC(=O)C1(C#N)C2(C#N)C(N)=NC(ON=C(C)C)(ON=C(C)C)C12C#N (stereo unspecified)" property=TGI value_reported="> 100 µM"
compound=CCOP(=O)(OCC)/C(C#N)=C\c1ccsc1 property=TGI value_reported="> 100 µM"
compound=N#C/C(=C/n1c(=S)[nH]c2ccccc21)C(N)=O property=TGI value_reported="> 100 µM"
compound=O=C(NC12CC3CC(CC(C3)C1)C2)C(=O)c1c[nH]c2ccc(Br)cc12 property=TGI value_reported="6.39 µM"

Kindly give each listed record's TGI.
1. CC(=O)OC12CC(C(F)(F)F)(C(F)(F)F)OC1(OC(C)=O)CC(C(F)(F)F)(C(F)(F)F)O2 (stereo unspecified)
2. O=C(/C=C/c1ccc(OCc2ccccc2)cc1)NCc1ccc(C(=O)NCc2ccccc2)cc1

A)
77.7 µM
> 100 µM

---

Test system: NCI-H226 lung
Experiment description: NCI tumour cell line growth inhibition, 48 h
Record form. Attribute: TGI. Fill in for each entry.

Some compounds with recorded TGI:
compound=CNC(=O)c1cc2nc3ccccc3c(=O)n2c2ccccc12 value_reported="> 10 µM"
compound=Cc1ccc2[nH]c3c(c2c1)N=c1ccccc1=NO3 value_reported="> 100 µM"
compound=Cc1ccc(S(=O)(=O)/N=C2/N(C)CCCS2(=O)=O)cc1 value_reported="> 100 µM"
compound=CC(C)(C)c1ccc(O)c(C(c2ccc([N+](=O)[O-])cc2)c2cc(C(C)(C)C)ccc2O)c1 value_reported="3.51 µM"
compound=NC(=O)COc1c(Br)cc(Br)cc1Br value_reported="> 100 µM"
compound=COc1ccc(OC)c(NC2=NCCO2)c1 value_reported="> 100 µM"

Q) Please supply the value of reported TGI for the item Cc1ccc(NC(=O)C(=O)C(C(=O)c2ccc3ccccc3c2)C2OC(=O)c3ccccc32)c(C)c1 (configuration not stated)
A) 15.8 µM

---

Test system: OVCAR-4 ovarian
Experiment description: NCI tumour cell line growth inhibition, 48 h
Consider the following compounds; for each one, report its TGI.

I would be grateful if you could provide TGI for each of the following entries.
1. COc1ccc(OC)c(NC2=NCCO2)c1
2. CC(CN1CC(=O)NC(=O)C1)N1CC(=O)NC(=O)C1 (stereo unspecified)
3. CCN(CC)CCCOc1ccc2ncnc(Nc3ccc(Oc4cccc(C(F)(F)F)c4)c(Cl)c3)c2c1
4. O=C(O)/C=C/c1ccc[c]([Sb](=[O])([OH])[OH])c1
5. O=C1Nc2ccccc2/C1=C\c1cccc(/C=C2/C(=O)Nc3ccccc32)n1
6. COC1=CC(=O)c2c(cc(COP(N)(=O)N(CCCl)CCCl)n2C)C1=O (stereo unspecified)
7. C=CCNc1nc(O)c(/C=C2\C=Nc3ncccc32)s1
8. COc1cc(NS(C)(=O)=O)ccc1NCc1cnc2ccc3[nH]cccc3c12

A)
1. > 100 µM
2. > 750 µM
3. 2.99 µM
4. > 100 µM
5. 1.99 µM
6. 16.3 µM
7. 24.9 µM
8. 65.7 µM

Respectfully, I request TGI for each entry included below.
1. CC(C)(CN1CCOCC1)C(=O)/C=C/c1ccc(/C=C/C(=O)C(C)(C)CN2CCOCC2)cc1
2. Clc1ccc2nc3n[nH]c(Cl)c3nc2c1

A)
["2.4 µM", "> 100 µM"]

---

Hi there, I'd appreciate the recorded TGI for every entry that follows.
System: HCT-116 colon
Experiment description: NCI tumour cell line growth inhibition, 48 h

Study these solved cases before continuing.
molecule=CC(=O)NNc1nc(C)c(C(/C=C/c2ccc([N+](=O)[O-])cc2)=N/NC(N)=O)s1 value_reported="> 100 µM"
molecule=Cc1ccc(S(=O)(=O)/N=C2/N(C)CCCS2(=O)=O)cc1 value_reported="> 100 µM"

Each molecule below has a reported value. Please supply its TGI.
1. O=C(Nc1ccc2ncnc(Nc3ccc(Oc4cccc(F)c4)c(Cl)c3)c2c1)c1ccc(CN2CCOCC2)cc1
2. O=C1C=CC(=O)C2C1Cc1ccccc1C2c1ccccc1 (stereo unspecified)
3. Cc1ccc2n(c1)cc(-c1ccc(/C=N/NC(=N)N/N=C/c3ccc(-c4cn5cc(C)ccc5[n+]4C)cc3)cc1)[n+]2C
4. Nc1ncnc2c1sc(=S)n2-c1ccccc1

A)
["8.94 µM", "> 100 µM", "> 100 µM", "> 100 µM"]

---

System: SNB-75 CNS
Experiment description: NCI tumour cell line growth inhibition, 48 h
Property: TGI (µM)
One number for each entry, in µM.

// known answers, use as guide
structure_smiles_string=O=C(O)CNc1ccc(Cl)c(Cl)c1 test_system="SNB-75 CNS" value_reported=94.1
structure_smiles_string=CCN(CCCl)CCCCCNc1c2ccccc2nc2ccc(OC)cc12 test_system="SNB-75 CNS" value_reported=3.02
structure_smiles_string=Fc1ccc2[nH]cc(-c3nc(-c4c[nH]c5ccncc45)cs3)c2c1 test_system="SNB-75 CNS" value_reported=2.62
structure_smiles_string=O=C(N/C(=C\c1c(O)ccc2ccccc12)c1nc2ccccc2[nH]1)c1ccccc1 test_system="SNB-75 CNS" value_reported=45.6
structure_smiles_string=COC1=CC(=O)C(Br)=CC1=O test_system="SNB-75 CNS" value_reported=29.1
structure_smiles_string=COc1cc(OC)c(/C=C/C(=O)c2ccc(Nc3ncnc4ccccc34)cc2)c(OC)c1 test_system="SNB-75 CNS" value_reported=1.55
structure_smiles_string=O=c1nc(NC(c2ccccc2)(c2ccccc2)c2ccccc2)ccn1CCCl test_system="SNB-75 CNS" value_reported=41.8

We next turn to a different compound, shown below.
Q) Read off the recorded TGI for `Cc1cc(C)nc(NS(=O)(=O)c2ccc(Nc3c4ccccc4nc4c(C(=O)Nc5ccc(S(=O)(=O)Nc6cc(C)on6)cc5)ccc(Cl)c34)cc2)n1`
A) 84.1

---

Please respond with reported TGI for every item in the list.
System: OVCAR-4 ovarian
Experiment description: NCI tumour cell line growth inhibition, 48 h

compound=CCN(CCCl)CCCCCNc1c2ccccc2nc2ccc(OC)cc12 value_reported="3.42 µM"
compound=CCCCC[C@H]1CC=C2C(=O)C=C[C@@H]2CC=CCCCC(=O)O[C@@H](CCCCC)CC=C2C(=O)C=C[C@@H]2CC=CCCCC(=O)O[C@@H](CCCCC)CC=C2C(=O)C=C[C@@H]2CC=CCCCC(=O)O1 value_reported="> 8.75 µM"
compound=COc1cccc(-n2ncc3c(N/N=C/c4ccc(C)cc4)ncnc32)c1 value_reported="> 25 µM"
compound=CC(=O)NNc1nc(C)c(C(/C=C/c2ccc([N+](=O)[O-])cc2)=N/NC(N)=O)s1 value_reported="> 100 µM"
compound=CCn1c(-c2ccc(OC)cc2)nc2c1C(=O)c1ccccc1C2=O value_reported="> 100 µM"
compound=CC(C)(C)c1ccc(O)c(C(c2ccc([N+](=O)[O-])cc2)c2cc(C(C)(C)C)ccc2O)c1 value_reported="3.91 µM"
compound="CCCCC(=C=C(C)CO)C1CCCN1C(=O)OC(C)(C)C (stereo not drawn)" value_reported="39.3 µM"
compound="COC(NC(N)=O)C(=O)O (stereo not drawn)" value_reported="> 100 µM"

Please look at the items below and tell me TGI for each one, in order.
1. Cc1ccc(-c2c(C#N)[n+](=O)c3cc(F)c(F)cc3n2[O-])cc1
2. O=P(O)(O)OCC1OC(n2cnc3c(NCc4ccco4)ncnc32)C(O)C1O (stereo not drawn)
3. O=C(O)C1CCN(Cc2oc(CO)cc(=O)c2O)C1 (stereo not drawn)
4. CCC#CC[C@H](O)C/C=C1/C(=O)C=C[C@@H]1C/C=C\CCCC(=O)OC
5. COC1(OC)C2(Cl)C(Cl)=C(Cl)C1(Cl)C1c3ccc(C(C)=O)c4cccc(c34)C12 (stereo not drawn)
6. Nc1nc(Nc2ccc(Cl)cc2)sc1C(=O)c1c[nH]c2ccccc12
7. COC(=O)[C@H]1[C@@H](O)[C@@]2(O)c3c(OC)cc(OC)cc3O[C@@]2(c2ccc3c(c2)OCO3)[C@@H]1c1ccccc1
8. COc1cc(OC)c(/C=C/C(=O)c2ccc(Nc3ncnc4ccccc34)cc2)c(OC)c1

A)
41.2 µM
> 41 µM
> 100 µM
8.64 µM
> 100 µM
51.7 µM
> 10.1 µM
3.05 µM

Dear reader, for each entry below, please note its TGI.
1. CO[C@H]1CC[C@]2(C)C3=CC[C@@]4(C)C(CC[C@@H]4C(C)CC[C@@H](C)C(C)C)C(=CCC2C1)O3 (stereo partly drawn)
2. O=S(=O)(c1ccccc1)c1nccs1

A)
1: > 25 µM; 2: > 100 µM

Reference source for all entries: PubChem BioAssay (NCI)
